TESTED_SYSTEM: recombinant MtbUGM (Mycobacterium tuberculosis, UniProt P9WIQ1)
Construct: made in house
Sequence (P9WIQ1 whole entry): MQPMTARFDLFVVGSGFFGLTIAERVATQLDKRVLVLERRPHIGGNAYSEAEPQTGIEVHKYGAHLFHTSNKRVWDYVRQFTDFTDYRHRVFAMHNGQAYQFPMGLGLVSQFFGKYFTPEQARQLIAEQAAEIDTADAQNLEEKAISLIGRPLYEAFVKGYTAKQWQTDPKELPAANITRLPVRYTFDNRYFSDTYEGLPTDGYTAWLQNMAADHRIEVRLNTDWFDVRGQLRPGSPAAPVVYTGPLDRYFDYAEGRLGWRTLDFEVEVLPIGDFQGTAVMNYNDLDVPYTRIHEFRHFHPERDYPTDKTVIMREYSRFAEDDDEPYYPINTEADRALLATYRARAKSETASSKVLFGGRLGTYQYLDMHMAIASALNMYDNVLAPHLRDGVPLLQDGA
ASSAY_EXPLANATION: biochemical
CONDITION_SUMMARY: 100 μM; mean of two replicates; read-out: % inhib MtbUGM (100 μM)
OUTCOME_MEASURE: inhibition at 100 µM (%)
The answer is to be given in %; state only the numeric part.

Please tell me the measured inhibition at 100 µM for O=C(O)CC1Sc2nnc(Cc3ccc(Br)cc3)n2N=C1c1ccc(Br)cc1 (stereo not drawn) [Compound 19] ; system: recombinant MtbUGM (Mycobacterium tuberculosis, UniProt P9WIQ1).
90

---

TESTED_SYSTEM: recombinant MtbUGM (Mycobacterium tuberculosis)
Construct: made in house
ASSAY_EXPLANATION: biochemical
CONDITION_SUMMARY: 50 μM; mean of two replicates; read-out: % inhib MtbUGM (50 μM)
# reported inhibition at 50 µM; entries follow
The answer is to be given in %; state only the numeric part.

• O=C(O)CC1Sc2nnc(Cc3ccc(Br)cc3)n2N=C1c1ccc(-c2ccccc2)cc1 (centres unmarked) [Compound 25] = 100
• O=C(O)CC1Sc2nnc(CCc3ccc(Br)cc3)n2N=C1c1ccc(Cl)cc1 (centres unmarked) [Compound 27] = 48
• O=C(O)CC1Sc2nnc(Cc3ccc(Br)cc3)n2N=C1c1ccc(Br)cc1 (centres unmarked) [Compound 19] = 67

Please give the documented inhibition at 50 µM of O=C(O)CC1Sc2nnc(Cc3ccc(-c4ccccc4)cc3)n2N=C1c1ccc(Cl)c(Cl)c1 (centres unmarked) [Compound 31]
100

Please give the documented inhibition at 50 µM of O=C(O)CC1Sc2nnc(-c3ccc(Br)cc3)n2N=C1c1ccc(Cl)cc1 (centres unmarked) [Compound 26]
23

Please give the documented inhibition at 50 µM of CS(=O)(=O)NC(=O)CC1Sc2nnc(Cc3ccc(Br)cc3)n2N=C1c1ccc(Cl)cc1 (centres unmarked) [Compound 12]
50

Please give the documented inhibition at 50 µM of O=C(CC1Sc2nnc(Cc3ccc(Br)cc3)n2N=C1c1ccc(Cl)cc1)NS(=O)(=O)c1ccccc1 (centres unmarked) [Compound 13]
92

Please give the documented inhibition at 50 µM of O=C(O)CC1Sc2nnc(Cc3ccc(-c4ccccc4)cc3)n2N=C1c1ccc(Cl)cc1 (centres unmarked) [Compound 29]
100

---

TESTED_SYSTEM: recombinant MtbUGM (Mycobacterium tuberculosis, UniProt P9WIQ1)
Construct: made in house
ASSAY_EXPLANATION: biochemical
CONDITION_SUMMARY: 100 μM; mean of two replicates; read-out: % inhib MtbUGM (100 μM)
OUTCOME_MEASURE: inhibition at 100 µM (%)
The answer is to be given in %; state only the numeric part.

* O=C(O)CC1Sc2nnc(Cc3ccc(-c4ccccc4)cc3)n2N=C1c1ccc(Cl)cc1 (stereo not shown) | 100
* O=C(O)CC1Sc2nnc(Cc3ccc(Br)cc3)n2N=C1c1ccc(Cl)c(Cl)c1 (stereo not shown) | 95
* COC(=O)CC1Sc2nnc(-c3cccs3)n2N=C1c1ccc(Cl)cc1 (stereo not shown) | 20

Please give the documented inhibition at 100 µM of O=C(O)CC1Sc2nnc(-c3cccs3)n2N=C1c1ccc(Cl)c(Cl)c1 (stereo not shown)
80

---

TESTED_SYSTEM: recombinant MtbUGM (Mycobacterium tuberculosis)
Construct: made in house
ASSAY_EXPLANATION: biochemical
CONDITION_SUMMARY: read-out: % inhib MtbUGM (50 μM)
# reported inhibition at 50 µM; entries follow
Answer with the value and then the unit.

* O=C(CC1Sc2nnc(Cc3ccc(-c4ccccc4)cc3)n2N=C1c1ccc(Cl)c(Cl)c1)NS(=O)(=O)c1ccccc1 (centres unmarked) | 100%
* O=C(CC1Sc2nnc(Cc3ccc(Br)cc3)n2N=C1c1ccc(Cl)cc1)NS(=O)(=O)c1cccs1 (centres unmarked) | 87%
* O=C(CC1Sc2nnc(Cc3ccc(Br)cc3)n2N=C1c1ccc(Cl)cc1)NS(=O)(=O)c1ccc(Cl)s1 (centres unmarked) | 100%
* Cn1cnc(S(=O)(=O)NC(=O)CC2Sc3nnc(Cc4ccc(Br)cc4)n3N=C2c2ccc(Cl)cc2)c1 (centres unmarked) | 36%

Query molecule follows.
Please give the documented inhibition at 50 µM of O=C(CC1Sc2nnc(Cc3ccc(Br)cc3)n2N=C1c1ccc(Cl)c(Cl)c1)NS(=O)(=O)c1ccccc1 (centres unmarked)
100%

All values here come from patent US10080757B2.
